Please respond with reported MIC for every item in the list.
System: Staphylococcus epidermidis TB-775
PROTOCOL DESCRIPTION: MIC, antimicrobial activity
Type: cell-based
CONDITION DESCRIPTION: Staphylococcus epidermidis, TB775, Staphylococcus epidermidis TB-775, tobramycin resistant strain; read-out: Minimum Inhibitory Concentration (MIC)
Numbers only, in µg/mL.

NC[C@H]1O[C@H](O[C@H]2[C@H](O)[C@@H](O[C@H]3O[C@H](CO)[C@@H](O)[C@H](N)[C@H]3O)[C@H](NC(=O)C(O)C3CNCCN3)C[C@@H]2N)[C@H](N)C[C@@H]1O (single isomer, unassigned) [(8)] = 25
NC[C@H]1O[C@H](O[C@H]2[C@H](O)[C@@H](O[C@H]3O[C@H](CO)[C@@H](O)[C@H](N)[C@H]3O)[C@H](NC(=O)C(O)C3CCCN3)C[C@@H]2N)[C@H](N)C[C@@H]1O (stereo partly drawn) [(5)] = 100

MIC reported for this compound NC[C@H]1O[C@H](O[C@H]2[C@H](O)[C@@H](O[C@H]3O[C@H](CO)[C@@H](O)[C@H](N)[C@H]3O)[C@H](NC(=O)C(O)C3CCNC3)C[C@@H]2N)[C@H](N)C[C@@H]1O (stereo partly drawn) [(1)] : 6.2
